- Assayed target: T1, SH2 domain of Crkl protein (residues 1-111), wild type (UniProt P46109 1-111)
- T1 construct: Crkl adaptor protein, SH2 domain, residues 1-111; Subcloned in pET28b+; all experiments were done on the N-terminally His-tagged protein; also called Crkl-SH2; Crkl SH2 domain; source: E. coli BL21 (DE3), purified (HisTrap nickel column, desalting); not shown: His tag, N-terminal, kept
- T1 sequence (P46109 1-111): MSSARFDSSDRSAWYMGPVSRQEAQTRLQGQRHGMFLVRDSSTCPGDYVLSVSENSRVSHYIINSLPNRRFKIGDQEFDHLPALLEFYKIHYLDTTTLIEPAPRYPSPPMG
- Protocol notes: stopped-flow fluorescence kinetics (FRET); dansyl-Pax112-123 constant at 2 μM mixed with Crkl-SH2 2 to 10 μM (pseudo-first-order, kon); koff by displacement of the preincubated 2 µM complex with excess non-dansylated Pax112-123 (30 μM); 283 K; 50 mM sodium-HEPES pH 7.5, 0.5 M NaCl
- Recorded conditions: both partners purified
Square brackets hold non-standard residues; d marks the D form. Ends that are not written are not given here. * marks the point of attachment. pY = N[C@@H](Cc1ccc(OP(=O)(O)O)cc1)C(=O)O; Dansyl = CN(C)c1cccc2c(S(=O)(=O)*)cccc12
Reported metric: pKd
On this scale, pKd is minus log10 of a concentration expressed in M (mol/L).

q: What measured pKd goes with Dansyl-GEEEHV[pY]SFPNK (The dansyl group is the FRET acceptor of Trp14 of the SH2 domain; source: synthetic peptide, bought: GenScript) [dansylated Pax_(112–123) peptide (Dans-GEEEHV-pY-SFPNK)] ?
a: 5.55

Source: paper PMC9332313
